B1: Gamma-crystallin C, residues 4 to 79; numbered along this chain, P07315 (parent)
chain: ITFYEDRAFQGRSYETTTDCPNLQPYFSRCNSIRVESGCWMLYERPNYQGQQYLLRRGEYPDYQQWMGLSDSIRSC

# Variants of: B1
# Protocol notes: abundance fitness (aPCA) (normalised: wild type 0, dead -1); higher = more abundant; growth selection in yeast, the domain comes from the species named
# Experimental setup: Homo sapiens
Just so you know, the groups by abundance fitness go like this: Low: < -0.1; Mid: ≥ -0.1 and < 0.002; High: ≥ 0.002

ITFYEDRAFQGRSYETTTDCPNLQPYFSRCNSIRVESGCWMLYERPNYQGQQYLLRRGEYPDYQQWMGLSDSIRKC [S75K] : Low
ITFYEDRAFQGRSYETTTDCPNLQPYFSRCNSIRVESGCWMLYERPNYQGQQYLLCRGEYPDYQQWMGLSDSIRSC [R56C] : High
ITFYEDRAFQGRSYETTTDCPNLQPYFSRCNSIRVESGCWMLYERPNYQGQQYLLRRGEYPDYQQCMGLSDSIRSC [W66C] : Low
ITFYEDRAFQGRSYETTTDCPNLQPYFSRCNSIRVESGCWMLYTRPNYQGQQYLLRRGEYPDYQQWMGLSDSIRSC [E44T] : Low
ITFYEDRAFQGRSYETTTDCPNLQPYFSRCNSIRVESGCWMLYERPNYQGQQYLLRRGEYPDYQQWMGLHDSIRSC [S70H] : Low
ITFYEDRAFQGRSYETTTDCPNLQPTFSRCNSIRVESGCWMLYERPNYQGQQYLLRRGEYPDYQQWMGLSDSIRSC [Y26T] : Low
ITFYEDRAFQGRSYETTTDCPNLQPYFSRCNSIRVESGCWMLGERPNYQGQQYLLRRGEYPDYQQWMGLSDSIRSC [Y43G] : Low
ITFYEDRAFQGRSYETTTDCPNLQPYFSRCNSIRVESGCWMLYERPNYQGQQYLLRRGEYPDYQQWMGLSSSIRSC [D71S] : Mid
ITFYEDRAFQGRSYETTTDCPNLQPYFSRCNSIRVESGCWMLYERPNYQGQQYLLRRGEYPDYQQWMGLSDSIRAC [S75A] : Mid
ITFYEDRAFQGRSYETTTDCPNLQPYFSRCNSIRVESGCWMLYERPNYQGQQYLLRRGEYPDYQQWMGLSDGIRSC [S72G] : High
ITFYEDRAFQGRSYETTTDCPNLQPYFSRCNSIRVESGCWMLYERPNYQGQQYLLRIGEYPDYQQWMGLSDSIRSC [R57I] : Mid
ITFYEDRAFQGRSYETTTDCPNLQPYFSRCNSIRVESGCWMLYERPNRQGQQYLLRRGEYPDYQQWMGLSDSIRSC [Y48R] : Low
ITFYEDQAFQGRSYETTTDCPNLQPYFSRCNSIRVESGCWMLYERPNYQGQQYLLRRGEYPDYQQWMGLSDSIRSC [R7Q] : High
ITFYEDRAFQGRSYETTTDCPNLQPYFSRCNSIRVESGCWMLYERPNYQGQQYLDRRGEYPDYQQWMGLSDSIRSC [L55D] : Low
ITFYEDRAFQGRSYETTTDCPNLQPYFKRCNSIRVESGCWMLYERPNYQGQQYLLRRGEYPDYQQWMGLSDSIRSC [S28K] : High
ITFYEDRAFQGRSYETTTDCPNLQPYFSRCNSIRVESGCWMLYERPNYQGQQYLLRRGEYPDEQQWMGLSDSIRSC [Y63E] : Low
ITFYEDRAFQGRSYETTTDCPNLSPYFSRCNSIRVESGCWMLYERPNYQGQQYLLRRGEYPDYQQWMGLSDSIRSC [Q24S] : Mid
ITFYEGRAFQGRSYETTTDCPNLQPYFSRCNSIRVESGCWMLYERPNYQGQQYLLRRGEYPDYQQWMGLSDSIRSC [D6G] : Mid
ITFYEDRAFQGRSYETTTDCPNLQPYFSRCNSIRVESGCWMLYERPNYQGQQYLLRRGEYPDYEQWMGLSDSIRSC [Q64E] : High
ITFYEDRAFQGRSYETTTDCPNLQPYFSRCNSIRVESGCWMLYERPNYQGQQYLLRRGEYPDYQQWYGLSDSIRSC [M67Y] : Mid
ITFYEDRAFQGRSYETTTDCPNLQPWFSRCNSIRVESGCWMLYERPNYQGQQYLLRRGEYPDYQQWMGLSDSIRSC [Y26W] : Mid
ITFYEDRAFQGRSYETTTDCPNLQPYFSRCNSIRVESGCWMLYERPWYQGQQYLLRRGEYPDYQQWMGLSDSIRSC [N47W] : Mid
ITFYETRAFQGRSYETTTDCPNLQPYFSRCNSIRVESGCWMLYERPNYQGQQYLLRRGEYPDYQQWMGLSDSIRSC [D6T] : High
ITFYEDRAFQGRSYETTTDCPNLQKYFSRCNSIRVESGCWMLYERPNYQGQQYLLRRGEYPDYQQWMGLSDSIRSC [P25K] : High
ITFYEDRAFQGRSYETTTDCPNLQPYFSRCNSIRVESGCWMLYERPNYQGQFYLLRRGEYPDYQQWMGLSDSIRSC [Q52F] : High
